Assay: Cytotoxicity against human Ava5 cells
Format: cell-based
CC50: recorded values

- mol.smiles: "NC(=S)Nc1cccc(OCCCCCOc2ccncc2)c1"
  comparison.symbol: ">"
  CC50 / µM: 50
- mol.smiles: "S=C(NCCc1ccccc1)Nc1cccc(OCCCCCc2ccccc2)c1"
  comparison.symbol: "="
  CC50 / µM: 33
- mol.smiles: "NC(=S)Nc1ccccc1OCCCCCc1ccccc1"
  comparison.symbol: "="
  CC50 / µM: 31
- mol.smiles: "NC(=S)Nc1cccc(NCCCCCc2ccccc2)c1"
  comparison.symbol: ">"
  CC50 / µM: 50
- mol.smiles: "NC(=S)Nc1cccc(OCCCCCOc2cccc(C(=O)c3ccccc3)c2)c1"
  comparison.symbol: "="
  CC50 / µM: 13
- mol.smiles: "NC(=S)Nc1cccc(OCCCCCOc2cccnc2)c1"
  comparison.symbol: ">"
  CC50 / µM: 50
- mol.smiles: "NC(=S)Nc1cccc(OCCCCCOc2ccc(Cl)cc2)c1"
  comparison.symbol: "="
  CC50 / µM: 7
- mol.smiles: "NC(=S)Nc1cccc(OCCCCCOc2ccc(Br)cc2)c1"
  comparison.symbol: "="
  CC50 / µM: 19
- mol.smiles: "NC(=S)Nc1cccc(OCCCCc2ccccc2)c1"
  comparison.symbol: ">"
  CC50 / µM: 50
- mol.smiles: "NC(=S)Nc1cccc(Oc2ccccc2)c1"
  comparison.symbol: ">"
  CC50 / µM: 50
- mol.smiles: "NC(=S)Nc1cccc(OCCCCCOc2ccc(N3CCOCC3)cc2)c1"
  comparison.symbol: ">"
  CC50 / µM: 50
- mol.smiles: "NC(=S)Nc1cccc(OCCCCCOc2cccc(-c3ccccc3)c2)c1"
  comparison.symbol: "="
  CC50 / µM: 13
